# TARGET_OF_ASSAY: Leucine--tRNA ligase (Mycobacterium tuberculosis (strain ATCC 25618 / H37Rv))
# Sequence (P9WFV1 whole entry): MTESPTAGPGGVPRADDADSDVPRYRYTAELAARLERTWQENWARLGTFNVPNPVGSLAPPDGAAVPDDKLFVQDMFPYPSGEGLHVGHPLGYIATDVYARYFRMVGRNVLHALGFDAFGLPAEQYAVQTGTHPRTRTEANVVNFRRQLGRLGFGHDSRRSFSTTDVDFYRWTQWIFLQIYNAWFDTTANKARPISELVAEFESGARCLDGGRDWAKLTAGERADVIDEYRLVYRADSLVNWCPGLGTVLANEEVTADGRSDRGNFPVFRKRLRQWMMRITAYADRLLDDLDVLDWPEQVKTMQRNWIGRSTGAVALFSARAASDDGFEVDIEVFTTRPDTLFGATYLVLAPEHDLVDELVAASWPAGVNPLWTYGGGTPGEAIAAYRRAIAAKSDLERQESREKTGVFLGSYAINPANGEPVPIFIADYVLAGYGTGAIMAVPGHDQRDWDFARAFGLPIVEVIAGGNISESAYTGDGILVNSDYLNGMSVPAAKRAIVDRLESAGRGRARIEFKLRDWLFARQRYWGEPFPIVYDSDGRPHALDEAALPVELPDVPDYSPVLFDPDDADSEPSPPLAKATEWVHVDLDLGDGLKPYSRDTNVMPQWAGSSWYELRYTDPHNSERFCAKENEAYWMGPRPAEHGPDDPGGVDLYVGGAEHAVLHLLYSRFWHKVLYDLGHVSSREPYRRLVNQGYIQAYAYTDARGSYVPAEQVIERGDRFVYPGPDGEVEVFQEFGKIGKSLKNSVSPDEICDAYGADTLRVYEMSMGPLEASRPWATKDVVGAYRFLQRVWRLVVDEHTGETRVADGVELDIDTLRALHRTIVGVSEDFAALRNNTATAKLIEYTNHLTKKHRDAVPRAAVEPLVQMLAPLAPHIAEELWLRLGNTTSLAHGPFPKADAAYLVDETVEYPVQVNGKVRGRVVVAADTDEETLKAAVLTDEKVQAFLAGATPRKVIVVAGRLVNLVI
# ASSAY_PROTOCOL: Inhibition of Mycobacterium tuberculosis LeuRS expressed in Escherichia coli Rosetta (DE3) cells
REPORTED_METRIC: pIC50
Give bare numbers, as −log10 of the molar value.

So, `NC[C@H]1OB(O)c2c(OCCO)ccc(Cl)c21` ? Its pIC50 was 6.67

----------
# System: Mycobacterium tuberculosis
# ASSAY_PROTOCOL: Antimycobacterial activity against Mycobacterium tuberculosis
# Type: functional
Cut-off 0.5 µg/mL on MIC: below means Yes, at or above means No.

MOLECULE | TARGET_OF_ASSAY | CATEGORY
Cc1ccc(OCCCCCCn2ccnc2)c(C)c1 | Mycobacterium tuberculosis | No
Cc1c(C(=O)C2CC2)[n+]([O-])c2cc(Cl)c(Cl)cc2[n+]1[O-] | Mycobacterium tuberculosis | No
Cc1nn2c(O)cc(-c3ncccn3)nc2c1-c1ccc(Cl)cc1 | Mycobacterium tuberculosis | No

Could you now consider this next compound?
Please indicate whether the reported MIC of `C[C@]1(COc2ccc(N3CCC(Oc4ccc(OC(F)(F)F)cc4)CC3)cc2)Cn2cc([N+](=O)[O-])nc2O1` is strictly below 0.5 µg/mL.
Yes

----------
For each of the compounds below, state its MIC.
# Test system: Mycobacterium tuberculosis
# ASSAY_PROTOCOL: Antimycobacterial activity against Mycobacterium tuberculosis
# Format: functional

Sample records with MIC:
COMPOUND | ASSAY_VALUE
O=[N+]([O-])c1ccc(/C=N/Nc2nc(Nc3ccccc3)nc(N3CCOCC3)n2)o1 | 0.63 µM
c1ccc(-c2c[nH]cn2)cc1 | < 10 µM
CC(=O)NC[C@H]1CN(c2ccc(N3CCSCC3)c(F)c2)C(=O)O1 [SUTEZOLID] | 0.03 to 0.5 µg/mL
NC(=O)c1sc(N2CCOCC2)cc1OCCc1ccc(OC(F)(F)F)cc1 | 0.24 µM
O=[N+]([O-])c1ccc(/C=N/Nc2nc(Nc3ccccc3)nc(Nc3ccccc3)n2)o1 | 0.078 µM

Now for a further compound.
So, `Cc1ccc(C(=O)Nc2ccc([N+](=O)[O-])cc2)s1` ? Its MIC was 0.5 µg/mL

Just for reference, ChEMBL document CHEMBL4619734 is where these values come from.
